pKi: −log10 of the molar value.
Across several studies, compounds have been characterized by their pKi on UniProt P30543; a selection follows.
Sequence (P30543 whole entry): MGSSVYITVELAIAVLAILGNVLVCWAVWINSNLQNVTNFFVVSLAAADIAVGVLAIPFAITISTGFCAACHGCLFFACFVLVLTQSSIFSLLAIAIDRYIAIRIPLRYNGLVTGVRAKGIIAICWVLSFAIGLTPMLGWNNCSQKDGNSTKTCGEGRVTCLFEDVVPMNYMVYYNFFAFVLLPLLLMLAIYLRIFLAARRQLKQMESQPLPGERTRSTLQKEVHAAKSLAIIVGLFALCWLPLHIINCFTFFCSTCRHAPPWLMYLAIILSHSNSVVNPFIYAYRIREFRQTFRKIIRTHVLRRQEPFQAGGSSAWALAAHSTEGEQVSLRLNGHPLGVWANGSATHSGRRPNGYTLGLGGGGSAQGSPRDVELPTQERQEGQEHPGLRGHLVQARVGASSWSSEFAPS
quantity.name: pKi

Please review the entries below; each comes with its answer.
record.smiles: Nc1nc(-c2ccc(F)cc2)cc(-c2ccco2)n1
pKi: 6.59
//
record.smiles: C[C@H](N)C(=O)Nc1nc2ccc(Cl)cc2c2nc(-c3ccco3)nn12
pKi: 6.84

P: COc1ccc(-c2cc3nc(-c4ccco4)nn3c(N)n2)c(OC)c1
Q: CCCn1c(=O)c2nc(-c3ccc(OCC(=O)Nc4ccc(C)cc4)cc3)[nH]c2n(CCC)c1=O
Please indicate which has the smaller reported pKi: P , or Q . To answer, give the label that identifies your chosen option.
Q
